test system: A549/ATCC NSCLC; experiment: NCI-60 one-dose screen, 48 h (100 = growth as untreated, 0 = no growth, -100 = all killed); conditions: 10 µM unless noted
Compounds without any hit were thinned out: in the full panel of roughly 83,000, 20% have a hit.
measure: growth (%)
Answer with a number only, understood to be in %.

These solved cases illustrate the format of a correct answer.
molecule	growth [%]
O=C1/C(=C/c2ccc(Cl)c(Cl)c2)CN(C(=O)CCN2CCC(=NO)CC2)C/C1=C\c1ccc(Cl)c(Cl)c1	-34.6
CC(C)[C@H]1COC(=O)N1[C@@H]1C(=O)N([C@@H](CCC(=O)N2CCN(C3CCCC3)CC2)C(=O)N[C@@H]2CCCc3ccccc32)[C@@H]1/C=C/c1cccc(Br)c1	25.7

Next, consider the following molecule.
Dear colleague, I am looking for the recorded growth of the following molecule: COC1C/C(=N\O)C2OC(c3ccccc3)OCC2O1 (centres undefined) 88.3
